These data points were gathered from ChEMBL document CHEMBL1201862.

Test system: DU-145
experiment: NCI tumour cell line growth inhibition, 48 h
Calls of active or inactive are those of the source. Rule as the data show it: active = GI50 up to about 1.1 µM and inactive = higher.
Kindly supply the reported GI50 values for the records listed here.

The recorded GI50 for Cc1n[nH]c(=O)n1/N=C\c1ccccc1 is > 100 µM (inactive)

The recorded GI50 for CN1CCc2c(sc3nc(S)nc(S)c23)C1 is > 100 µM (inactive)

The recorded GI50 for O=CC1C(Cl)=Nc2nc3ccccc3n2C1c1ccc([N+](=O)[O-])cc1 (stereo not given) is 4.74 µM (inactive)

The recorded GI50 for CCOC(=O)C1(Cc2ccccc2)Cc2cc3c(cc2C1)CCC3 is 44.6 µM (inactive)

The recorded GI50 for OC1C2[C@@H](O)CCCN2C[C@@H](O)[C@H]1O (stereo not given in full) is > 100 µM (inactive)

The recorded GI50 for NC(Cc1nnn[nH]1)C(=O)O (stereo not given) is > 100 µM (inactive)

The recorded GI50 for Cc1cc(C)c(N[S+]([O-])c2cccc(Cl)c2)c(C)c1 (stereo not given) is > 100 µM (inactive)

The recorded GI50 for BrCC[N+]12CCCN1CCC2 is 45.3 µM (inactive)

The recorded GI50 for COc1ccc(OCc2ccc3nc(-c4ccccc4)c(Cl)nc3c2)cc1 is > 100 µM (inactive)

The recorded GI50 for O=C(Nc1sccc1S(=O)(=O)c1ccc(Cl)cc1)c1ccc(Cl)cc1 is > 100 µM (inactive)

The recorded GI50 for CN(C)C=C1C(=O)c2c(Br)sc(Br)c2C1=O is 28.5 µM (inactive)

The recorded GI50 for COc1ccc(NC(=S)C#N)cc1 is > 100 µM (inactive)

The recorded GI50 for Cc1ccc(C2(c3ccc(F)cc3)OC(=O)c3ccccc32)c(O)c1 (stereo not given) is 15.4 µM (inactive)

The recorded GI50 for Ic1cccc(/C=C/CN2CCN(CCOC(c3ccccc3)c3ccccc3)CC2)c1 is 13.2 µM (inactive)

The recorded GI50 for CN(C)c1ccc(/C=C(\NC(=O)c2ccccc2)C(=O)Nc2ccccc2C(=O)NCc2ccccc2)cc1 is > 100 µM (inactive)

The recorded GI50 for O=c1cccccc1O [TROPOLONE] is > 100 µM (inactive)

The recorded GI50 for O=C(/C=c1\oc(=O)/c(=C/C(=O)c2ccc(Cl)cc2)oc1=O)c1ccc(Cl)cc1 is > 100 µM (inactive)

The recorded GI50 for COc1ccc(N(C(=O)OC(C)(C)C)[C@@H]2C(C)=C[C@H]([S@@+]([O-])c3ccc(C)cc3)[C@@H]3C(=O)N(C)C(=O)[C@@H]32)cc1 is 30.2 µM (inactive)

The recorded GI50 for O=C(CCC=C(S(=O)(=O)c1ccccc1)S(=O)(=O)c1ccccc1)c1ccccc1 is 5.64 µM (inactive)

The recorded GI50 for Nn1c(Cc2ccccc2)n[nH]c1=O is > 100 µM (inactive)

====

Tested on: HL-60
experiment: NCI tumour cell line growth inhibition, 48 h
Calls of active or inactive are those of the source. No stated cut-off is given here; in the data, active = GI50 up to about 1.1 µM and inactive = higher.
# output must be one of active, inactive

Tell me the assay call for COc1ccc(Nc2nc3ccccc3nc2-c2cccs2)cc1 please. inactive

Tell me the assay call for CC1=C(C(=O)Nc2cccc(Cl)c2)C(c2ccc([N+](=O)[O-])cc2)C(C(=O)Nc2cccc(Cl)c2)=C(C)N1 please. inactive

Tell me the assay call for CC(NNC(=O)c1cc[n+]([BH2-]C#N)cc1)c1ccccc1 (centres undefined) please. inactive

Tell me the assay call for O=C(O)CCC1CCc2cccc3occ1c23 (centres undefined) please. inactive

Tell me the assay call for COc1cc(C2c3cc4c(cc3OC(NCCc3ccccc3)C2C)OCO4)cc(OC)c1OC (centres undefined) please. active

Tell me the assay call for CC1(C)CC(=O)c2c(nc3ccc4ccccc4c3c2-c2ccc(NC(=O)CCCCC(=O)Nc3ccc(-c4c5c(nc6ccc7ccccc7c46)CC(C)(C)CC5=O)cc3)cc2)C1 please. inactive

Tell me the assay call for CN(C)c1ccc(C(=N/N=C2\C(=O)Nc3ccccc32)c2ccc(N(C)C)cc2)cc1 please. active

Tell me the assay call for COc1ccc(-c2c3c(n(C4OC(COC(C)=O)C(OC(C)=O)C(OC(C)=O)C4OC(C)=O)c(=S)c2C#N)CCCC3)cc1 (centres undefined) please. inactive

Tell me the assay call for COc1ccc(C2(Cl)C(Cl)(C(F)(F)F)C2(Cl)C(F)(F)F)cc1 (centres undefined) please. inactive

====

Tested on: MDA-MB-435
experiment: NCI tumour cell line growth inhibition, 48 h
The source made the active and inactive calls. No stated cut-off is given here; in the data, active = GI50 up to about 1.1 µM and inactive = higher.
# output must be one of t (active), f (inactive)

Tell me the assay call for Brc1cccc[n+]1-c1ccc2cc(-[n+]3ccccc3Br)ccc2c1 please. f

Tell me the assay call for OC1CCN2Cc3ccccc3N=C12 (stereo unspecified) please. f

Tell me the assay call for O=C(CCC=C(S(=O)(=O)c1ccccc1)S(=O)(=O)c1ccccc1)c1ccccc1 please. f

Tell me the assay call for COc1ccc(C(C)c2cc3c(cc2OC)OCO3)cc1 (stereo unspecified) please. t

Tell me the assay call for CC(C)=CCOC(=O)C(C)=[N+]=[N-] please. f

Tell me the assay call for COc1cccc(Nc2nc(-c3cccs3)nc3ccc(Br)cc23)c1 please. f

Tell me the assay call for CC(=O)c1c(O)c(C)c(O)c(Cc2c(O)c3c(c(C(=O)/C=C/c4ccccc4)c2O)OC(C)(C)C=C3)c1O please. f

Tell me the assay call for CCCCCCCC/C=C\CCCCCCC/C=C1/C[C@](/C=C/C(=O)OC)(CO)OC1=O please. t

Tell me the assay call for NC1=CN(CCCO)C2=N/C(=C\c3ccco3)C(=O)N12 please. f

Tell me the assay call for CCCCN(CC)c1nc(C)nc2c1c(C)c(C)n2-c1c(C)cc(C)cc1C please. f

Tell me the assay call for Nc1nc(Cl)c(C=O)c(NCC2(CO)CCC2)n1 please. f

====

Test system: CAKI-1
experiment: NCI tumour cell line growth inhibition, 48 h
The source made the active and inactive calls. Cut-off read from the data, not from the text of the source: active = GI50 up to about 1.1 µM and inactive = higher. Where a SMILES comes first, the peptide text is derived from it. The star is where a group is joined. Cbz = O=C(OCc1ccccc1)*; Bn = c1ccc(C*)cc1
# output must be one of 1.0 (active), 0.0 (inactive)

Tell me the assay call for OC1C2[C@@H](O)CCCN2C[C@@H](O)[C@H]1O (some centres undefined) please. 0.0

Tell me the assay call for Cc1noc(C)c1CCCOC1COc2ccccc2OCCOCCOc2ccccc2OC1 please. 0.0

Tell me the assay call for Cc1cc2nnc(C(N)=O)c(N)c2cc1C please. 0.0

Tell me the assay call for O=C(O)CCNc1ncc2c(n1)-c1ccccc1OC2 please. 0.0

Tell me the assay call for CC(=O)NC1(C)CCC(C(C)(C)NC(C)=O)CC1 (centres undefined) please. 0.0

Tell me the assay call for COC(=O)C(Cc1ccc(O)cc1)NC(=O)C(COCc1ccccc1)NC(=O)OCc1ccccc1 (centres undefined) (Cbz-Ser(Bn)-Tyr-OMe; configuration not given here) please. 0.0

Tell me the assay call for C[C@H](CCC(=O)O)[C@H]1CC[C@H]2[C@@H]3[C@H](O)C[C@@H]4C[C@H](O)CC[C@]4(C)[C@H]3CC[C@]12C please. 0.0

Tell me the assay call for COc1cc(C2c3cc4c(cc3OC(NCCc3ccccc3)C2C)OCO4)cc(OC)c1OC (centres undefined) please. 1.0

Tell me the assay call for C/C=C(/C)C(=O)O[C@H]1C(C)=C[C@]23C(=O)[C@@H](C=C(COC(C)=O)[C@@H](O)[C@]12O)[C@H]1[C@@H](C[C@H]3C)[C@@]1(C)OC(=O)/C(C)=C\C please. 0.0

====

Test system: OVCAR-3
experiment: NCI tumour cell line growth inhibition, 48 h
Active and inactive are the calls of the source. Cut-off read from the data, not from the text of the source: active = GI50 up to about 1.1 µM and inactive = higher.
# output must be one of True = active, False = inactive

Tell me the assay call for COCCOc1nc(-c2ccccc2)nc2ccccc12 please. False

Tell me the assay call for Cn1c2c(c3ccccc31)CCN(CCCCN1CCN(c3cccc(Cl)c3)CC1)C2=O please. False

Tell me the assay call for COc1ccc2nc3cc([N+](=O)[O-])ccc3c(NNc3ccccc3)c2c1 please. False

Tell me the assay call for Cc1noc(C)c1CCCOC1COc2ccccc2OCCOCCOc2ccccc2OC1 please. False

Tell me the assay call for O=C(O)CCC1CCc2cccc(OCC(=O)O)c2C1=O (stereo not given) please. False

Tell me the assay call for O=c1cccccc1O please. False

Tell me the assay call for NCC(=O)NC(CO)C(=O)O (stereo not given) please. False

Tell me the assay call for Nc1ccc(C(=O)NN2C(=O)C(Cl)C2c2ccccc2O)cc1 (stereo not given) please. False

Tell me the assay call for S=C(S)NCCN1CCNCC1 please. False

Tell me the assay call for Cc1cc(S(=O)(=O)Nc2nc(N)n[nH]2)c(Cl)cc1Cl please. False

Tell me the assay call for COc1ccc2c(c1)CC1c3c(cc4c(c3-2)OCO4)CCN1C (stereo not given) please. False

Tell me the assay call for CCCCCCCc1cc(OC(=O)c2c(C)cc(OC)cc2O)cc(O)c1C(=O)O please. False

Tell me the assay call for COc1cc2cc(c1Cl)N(C)C(=O)C[C@H](OC(=O)[C@H](C)N(C)C(C)=O)[C@]1(C)O[C@H]1[C@H](C)[C@@H]1C[C@@](O)(NC(=O)O1)[C@H](OC)/C=C/C=C(/C)C2 please. True

Tell me the assay call for CN(CCNC(=O)c1nn(-c2ccc(Cl)cc2Cl)c2c1Cc1ccccc1-2)CCNC(=O)c1nn(-c2ccc(Cl)cc2Cl)c2c1Cc1ccccc1-2 please. False

Tell me the assay call for CN(C)CCCNC(=O)CCNC(=O)c1cc(NC(=O)c2cc(NC(=O)c3cc(NC(=O)c4nc(NC(=O)CCCNC(=O)c5cc(NC(=O)c6cc(NC(=O)c7cc(NC(=O)c8nccn8C)cn7C)cn6C)cn5C)cn4C)cn3C)cn2C)cn1C please. False
